# Procedure summary: activity coefficient (dimensionless); of the first substance listed, at infinite dilution; xn = mol fraction of the nth substance listed
# Measurement parameters: 343.55 K; Liquid; Chromatography; x1 = 0
Binary call on activity coefficient: Y from 0.8 upward, N beneath that.

{"Compound": "c1ccccc1 [benzene] + CCCC[N+](C)(C)C.O=S(=O)([N-]S(=O)(=O)C(F)(F)F)C(F)(F)F", "Qualitative label": "Y"}
{"Compound": "CCC=O [propanal] + CCCC[N+](C)(C)C.O=S(=O)([N-]S(=O)(=O)C(F)(F)F)C(F)(F)F", "Qualitative label": "N"}
{"Compound": "CCCC=O [butanal] + CCCC[N+](C)(C)C.O=S(=O)([N-]S(=O)(=O)C(F)(F)F)C(F)(F)F", "Qualitative label": "N"}
{"Compound": "CCCCCC=O [hexanal] + CCCC[N+](C)(C)C.O=S(=O)([N-]S(=O)(=O)C(F)(F)F)C(F)(F)F", "Qualitative label": "Y"}
{"Compound": "CCCCCCC(=O)OC [methyl heptanoate] + CCCC[N+](C)(C)C.O=S(=O)([N-]S(=O)(=O)C(F)(F)F)C(F)(F)F", "Qualitative label": "Y"}

Next compound, please.
Decide: is the reported value of activity coefficient for CCCCC=O [pentanal] + CCCC[N+](C)(C)C.O=S(=O)([N-]S(=O)(=O)C(F)(F)F)C(F)(F)F equal to or greater than 0.8?
Y
